Data provenance is patent US5668152A.

measured-on: UniProt:P24723
measurement-description: PKC Enzyme assay, eta isozyme
Type: biochemical
Give measured IC50 for each item. Keep answers brief.
Give bare numbers, in nM.

CN(C)CCCn1cc(C2=C(c3c[nH]c4ccccc34)C(=O)NC2=O)c2ccccc21: 90

// switching to the query molecule
Query: # lookup: IC50 of `Cn1cc(C2=C(c3cn(C4CCN(C(=O)OC(C)(C)C)CC4)c4ccccc34)C(=O)NC2=O)c2ccccc21`
Response: 300

* * *

measured-on: protein kinase C eta (Homo sapiens)
Sequence (P24723 whole entry): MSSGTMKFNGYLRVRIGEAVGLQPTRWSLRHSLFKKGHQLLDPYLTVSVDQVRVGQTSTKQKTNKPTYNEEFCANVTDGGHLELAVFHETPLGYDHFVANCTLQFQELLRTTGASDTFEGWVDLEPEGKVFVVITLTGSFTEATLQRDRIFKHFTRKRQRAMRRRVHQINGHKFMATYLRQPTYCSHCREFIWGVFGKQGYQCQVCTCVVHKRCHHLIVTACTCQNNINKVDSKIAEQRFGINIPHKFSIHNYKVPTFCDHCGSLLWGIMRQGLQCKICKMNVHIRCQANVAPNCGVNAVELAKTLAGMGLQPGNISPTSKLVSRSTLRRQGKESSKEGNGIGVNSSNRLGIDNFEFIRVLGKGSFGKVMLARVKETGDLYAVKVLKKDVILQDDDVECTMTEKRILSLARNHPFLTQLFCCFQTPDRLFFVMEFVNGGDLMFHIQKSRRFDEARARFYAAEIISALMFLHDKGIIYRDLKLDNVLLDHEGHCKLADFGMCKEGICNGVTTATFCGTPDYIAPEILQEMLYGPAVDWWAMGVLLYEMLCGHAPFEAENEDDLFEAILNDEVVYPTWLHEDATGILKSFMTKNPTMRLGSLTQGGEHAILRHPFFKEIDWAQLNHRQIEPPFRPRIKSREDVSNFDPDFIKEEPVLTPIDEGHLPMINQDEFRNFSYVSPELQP
measurement-description: PKC Enzyme assay, eta isozyme
Type: biochemical
experimental-setup: PKC eta; 30 μM ATP, 30° C., 10 minutes; read-out: IC50 η
property-measured: pIC50
Answers are plain numbers, as −log10 of the molar value.

Worked cases, answers included:
Cn1cc(C2=C(c3cn(CCO[C@@H]4C[C@H](O)[C@@H](CN=[N+]=[N-])O4)c4ccccc34)C(=O)NC2=O)c2ccccc21 [Example 58]: 5.60
CC(=O)NCC1OC(OCCCCn2cc(C3=C(c4cn(C)c5ccccc45)C(=O)N(C(C)=O)C3=O)c3ccccc32)CC1OC(C)=O (stereo not drawn) [Example 70]: 5.85

Kindly review the next molecule as well.
Query: What value of measured pIC50 is listed for CC(=O)NCC1OC(OCCCCn2cc(C3=C(c4cn(C)c5ccccc45)C(=O)NC3=O)c3ccccc32)CC1OC(C)=O (stereo not drawn) [Example 55] ?
Response: 5.92
